Consider the following compounds and their measured half-life readings.
PROTOCOL NOTES: Metabolic stability in mouse liver microsomes
Assay type: in vitro ADME
CONDITIONS: female, CD-1, pooled liver microsomes, read-out: metabolic stability (mouse) t1/2 (converted)
// return numeric value only (unit: min, not printed)

Guide cases for half-life, answers given:
• CC(C)[C@@H](C)/C=C/[C@@H](C)[C@H]1CC[C@@H]2[C@]1(C)CC[C@H]1[C@]23C=C[C@]2(C[C@@H](O)CC[C@]12C)OO3 [Compound 2, Ergosterol peroxide] = 338
• CC(C)[C@@H](C)/C=C/[C@@H](C)[C@H]1CC[C@@H]2[C@]1(C)CC[C@H]1[C@]23C=C[C@]2(C[C@@H](OC(=O)NS(=O)(=O)c4ccccc4)CC[C@]12C)OO3 = 54

Query: Value lookup for half-life; key = "CC(C)[C@@H](C)/C=C/[C@@H](C)[C@H]1CC[C@@H]2[C@]1(C)CC[C@H]1[C@]23C=C[C@]2(CC(=O)CC[C@]12C)OO3"
Result: 54

* * *

PROTOCOL NOTES: Caco-2 permeability assay
Assay type: in vitro ADME
CONDITIONS: human, Caco-2, pH 7.4; apical to basolateral
Consider the following molecules and their measured Papp A→B at 2 h, 10 µmol/L readings.
// return numeric value only (unit: ×10⁻⁶ cm/s, not printed)

Guide cases for Papp A→B at 2 h, 10 µmol/L, answers given:
* CC(C)[C@@H](C)/C=C/[C@@H](C)[C@H]1CC[C@@H]2[C@]1(C)CC[C@H]1[C@]23C=C[C@]2(C[C@@H](O)CC[C@]12C)OO3 [Compound 2, Ergosterol peroxide] | 34.2
* NC(=O)N1c2ccccc2C=Cc2ccccc21 [carbamazepine, reference compound] | 37.6

Continue with the next molecule.
Query: Value lookup for Papp A→B at 2 h, 10 µmol/L; key = "CC(C)[C@@H](C)/C=C/[C@@H](C)[C@H]1CC[C@@H]2[C@]1(C)CC[C@H]1[C@]23C=C[C@]2(CC(=O)CC[C@]12C)OO3"
Result: 0.626

* * *

SUBJECT OF TEST: hERG (Homo sapiens, UniProt Q12809)
Construct: expressed in transfected cells; host or cells: HEK-293
Sequence (Q12809 whole entry): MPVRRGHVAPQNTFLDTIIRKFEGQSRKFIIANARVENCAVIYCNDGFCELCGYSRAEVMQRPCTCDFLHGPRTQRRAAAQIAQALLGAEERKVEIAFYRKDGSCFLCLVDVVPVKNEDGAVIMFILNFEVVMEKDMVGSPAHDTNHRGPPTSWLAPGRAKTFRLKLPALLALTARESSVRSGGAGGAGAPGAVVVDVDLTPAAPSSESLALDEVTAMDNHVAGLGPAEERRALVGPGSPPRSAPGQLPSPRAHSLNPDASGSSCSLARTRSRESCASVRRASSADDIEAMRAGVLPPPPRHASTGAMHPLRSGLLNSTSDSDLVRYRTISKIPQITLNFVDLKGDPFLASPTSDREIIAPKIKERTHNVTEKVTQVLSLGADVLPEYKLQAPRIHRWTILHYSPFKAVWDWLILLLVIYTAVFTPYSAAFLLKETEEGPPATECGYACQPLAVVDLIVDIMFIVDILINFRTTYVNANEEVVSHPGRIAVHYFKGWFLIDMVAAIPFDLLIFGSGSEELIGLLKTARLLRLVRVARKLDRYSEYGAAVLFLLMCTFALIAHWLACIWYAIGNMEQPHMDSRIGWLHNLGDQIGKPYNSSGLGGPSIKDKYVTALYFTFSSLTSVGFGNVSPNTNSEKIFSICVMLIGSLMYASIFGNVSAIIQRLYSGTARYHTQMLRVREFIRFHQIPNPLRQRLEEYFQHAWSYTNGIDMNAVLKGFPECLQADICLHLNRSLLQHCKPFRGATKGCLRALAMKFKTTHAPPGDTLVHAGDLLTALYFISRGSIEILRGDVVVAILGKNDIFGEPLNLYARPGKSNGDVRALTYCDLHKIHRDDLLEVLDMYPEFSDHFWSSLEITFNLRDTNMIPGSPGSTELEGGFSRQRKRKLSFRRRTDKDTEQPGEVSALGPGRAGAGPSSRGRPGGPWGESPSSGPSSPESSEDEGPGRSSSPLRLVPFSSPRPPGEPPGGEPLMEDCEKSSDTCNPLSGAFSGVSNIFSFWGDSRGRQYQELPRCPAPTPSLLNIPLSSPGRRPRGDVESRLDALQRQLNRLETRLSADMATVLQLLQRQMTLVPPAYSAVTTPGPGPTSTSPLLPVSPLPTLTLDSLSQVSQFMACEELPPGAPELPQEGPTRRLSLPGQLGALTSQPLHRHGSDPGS
PROTOCOL NOTES: hERG channel inhibition assay (QPatch HTX, HEK-293)
Format: cell-based
CONDITIONS: human, HEK-293 cells that express hERG; 1 μM, 3rd addition
Protocol: To assess potential cardiotoxicity, we performed the human ether-go-go-related gene (hERG) inhibition assay. […] Briefly, EP was tested at six concentrations (cumulative concentration–response). […] For hepatotoxicity determination, we performed the microsomal CYP inhibition assay. Briefly, EP was incubated at seven increasing concentrations with pooled human liver microsomes. […] The supernatants were analyzed by LC-MS/MS.
ASSAY METRIC: inhibition at 1 µM (%)
// return numeric value only (unit: %, not printed)

Query: Value lookup for inhibition at 1 µM; key = CC(C)[C@@H](C)/C=C/[C@@H](C)[C@H]1CC[C@@H]2[C@]1(C)CC[C@H]1[C@]23C=C[C@]2(C[C@@H](O)CC[C@]12C)OO3 [Compound 2, Ergosterol peroxide]
Result: 3.04

* * *

PROTOCOL NOTES: in vitro
CONDITIONS: human, plasma
ASSAY METRIC: half-life

Query: Value lookup for half-life; key = "CC(C)[C@@H](C)/C=C/[C@@H](C)[C@H]1CC[C@@H]2[C@]1(C)CC[C@H]1[C@]23C=C[C@]2(C[C@@H](OC(=O)NS(=O)(=O)c4ccccc4)CC[C@]12C)OO3"
Result: > 48 h

* * *

SUBJECT OF TEST: hERG (Homo sapiens, UniProt Q12809)
Construct: expressed in transfected cells; host or cells: HEK-293
PROTOCOL NOTES: hERG channel inhibition assay (QPatch HTX, HEK-293)
Type: cell-based
CONDITIONS: human, HEK-293 cells that express hERG; 30 μM, sixth addition
Description: To assess potential cardiotoxicity, we performed the human ether-go-go-related gene (hERG) inhibition assay. […] Briefly, EP was tested at six concentrations (cumulative concentration–response). […] For hepatotoxicity determination, we performed the microsomal CYP inhibition assay. Briefly, EP was incubated at seven increasing concentrations with pooled human liver microsomes. […] The supernatants were analyzed by LC-MS/MS.
ASSAY METRIC: inhibition at 30 µM (%)
// return numeric value only (unit: %, not printed)

Query: Value lookup for inhibition at 30 µM; key = CC(C)[C@@H](C)/C=C/[C@@H](C)[C@H]1CC[C@@H]2[C@]1(C)CC[C@H]1[C@]23C=C[C@]2(C[C@@H](O)CC[C@]12C)OO3 [Compound 2, Ergosterol peroxide]
Result: 18.7

* * *

PROTOCOL NOTES: Plasma protein binding, rapid equilibrium dialysis (mouse)
Format: in vitro ADME
CONDITIONS: read-out: plasma binding (mouse) protein binding (converted)
ASSAY METRIC: fraction unbound
# print the numeric value only

Query: Value lookup for fraction unbound; key = CC(C)[C@@H](C)/C=C/[C@@H](C)[C@H]1CC[C@@H]2[C@]1(C)CC[C@H]1[C@]23C=C[C@]2(C[C@@H](O)CC[C@]12C)OO3 [Compound 2, Ergosterol peroxide]
Result: 0.14

* * *

SUBJECT OF TEST: hERG (Homo sapiens)
Construct: expressed in transfected cells; host or cells: HEK-293
PROTOCOL NOTES: hERG channel inhibition assay (QPatch HTX, HEK-293)
Type: cell-based
CONDITIONS: human, HEK-293 cells that express hERG; 3 μM, fourth addition
ASSAY METRIC: inhibition at 3 µM (%)
// return numeric value only (unit: %, not printed)

Query: Value lookup for inhibition at 3 µM; key = CC(C)[C@@H](C)/C=C/[C@@H](C)[C@H]1CC[C@@H]2[C@]1(C)CC[C@H]1[C@]23C=C[C@]2(C[C@@H](O)CC[C@]12C)OO3 [Compound 2, Ergosterol peroxide]
Result: 6.21

* * *

SUBJECT OF TEST: hERG (Homo sapiens, UniProt Q12809)
Construct: expressed in transfected cells; host or cells: HEK-293
PROTOCOL NOTES: hERG channel inhibition assay (QPatch HTX, HEK-293)
Format: cell-based
CONDITIONS: human, HEK-293 cells that express hERG; 10 μM, fifth addition
ASSAY METRIC: inhibition at 10 µM (%)
// return numeric value only (unit: %, not printed)

Query: Value lookup for inhibition at 10 µM; key = CC(C)[C@@H](C)/C=C/[C@@H](C)[C@H]1CC[C@@H]2[C@]1(C)CC[C@H]1[C@]23C=C[C@]2(C[C@@H](O)CC[C@]12C)OO3 [Compound 2, Ergosterol peroxide]
Result: 10.1

* * *

PROTOCOL NOTES: Plasma protein binding, rapid equilibrium dialysis (human)
Type: in vitro ADME
CONDITIONS: read-out: plasma binding (human) protein binding (converted)
ASSAY METRIC: fraction unbound
# print the numeric value only

Query: Value lookup for fraction unbound; key = CC(C)[C@@H](C)/C=C/[C@@H](C)[C@H]1CC[C@@H]2[C@]1(C)CC[C@H]1[C@]23C=C[C@]2(C[C@@H](O)CC[C@]12C)OO3 [Compound 2, Ergosterol peroxide]
Result: 0.28

* * *

SUBJECT OF TEST: hERG (Homo sapiens, UniProt Q12809)
Construct: expressed in transfected cells; host or cells: HEK-293
PROTOCOL NOTES: hERG channel inhibition assay (QPatch HTX, HEK-293)
Type: cell-based
CONDITIONS: human, HEK-293 cells that express hERG; 0.1 μM, first addition
ASSAY METRIC: inhibition at 0.1 µM (%)
// return numeric value only (unit: %, not printed)

Query: Value lookup for inhibition at 0.1 µM; key = CC(C)[C@@H](C)/C=C/[C@@H](C)[C@H]1CC[C@@H]2[C@]1(C)CC[C@H]1[C@]23C=C[C@]2(C[C@@H](O)CC[C@]12C)OO3 [Compound 2, Ergosterol peroxide]
Result: 1.99

* * *

PROTOCOL NOTES: Caco-2 permeability assay
Type: in vitro ADME
CONDITIONS: human, Caco-2, pH 7.4, Caco-2; read-out: efflux ratio (B2A/A2B)
ASSAY METRIC: efflux ratio at 2 h, 10 µmol/L
# print the numeric value only

- CC(C)[C@@H](C)/C=C/[C@@H](C)[C@H]1CC[C@@H]2[C@]1(C)CC[C@H]1[C@]23C=C[C@]2(CC(=O)CC[C@]12C)OO3 [Compound 3]: 0.49

Query: Value lookup for efflux ratio at 2 h, 10 µmol/L; key = NC(=O)N1c2ccccc2C=Cc2ccccc21 [carbamazepine, reference compound]
Result: 0.74

* * *

SUBJECT OF TEST: CYP2B6 (Homo sapiens)
Sequence (P20813 whole entry): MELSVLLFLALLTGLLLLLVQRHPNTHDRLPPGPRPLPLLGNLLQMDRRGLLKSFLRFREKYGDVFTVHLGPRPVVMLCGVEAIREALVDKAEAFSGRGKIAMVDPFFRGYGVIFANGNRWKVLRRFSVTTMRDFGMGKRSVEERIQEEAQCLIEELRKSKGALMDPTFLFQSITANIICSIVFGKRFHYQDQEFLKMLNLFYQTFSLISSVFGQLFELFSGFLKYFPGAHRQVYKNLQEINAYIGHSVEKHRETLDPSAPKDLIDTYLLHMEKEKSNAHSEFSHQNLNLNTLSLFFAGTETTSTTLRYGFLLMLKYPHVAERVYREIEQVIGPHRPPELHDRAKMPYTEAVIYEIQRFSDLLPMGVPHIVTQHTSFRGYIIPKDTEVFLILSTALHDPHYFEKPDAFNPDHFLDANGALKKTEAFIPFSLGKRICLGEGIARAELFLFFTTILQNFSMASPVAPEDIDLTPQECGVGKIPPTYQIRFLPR
pIC50: −log10 of the molar value.
ASSAY METRIC: pIC50

Query: // map CC(C)[C@@H](C)/C=C/[C@@H](C)[C@H]1CC[C@@H]2[C@]1(C)CC[C@H]1[C@]23C=C[C@]2(C[C@@H](O)CC[C@]12C)OO3 [Compound 2, Ergosterol peroxide] to recorded pIC50 (system: CYP2B6 (Homo sapiens))
Result: < 4.60

The origin of these recorded values is paper PMC11375702.
